# system.under.test: 5-hydroxytryptamine receptor 6 (Rattus norvegicus, UniProt P31388)
# Sequence (P31388 whole entry): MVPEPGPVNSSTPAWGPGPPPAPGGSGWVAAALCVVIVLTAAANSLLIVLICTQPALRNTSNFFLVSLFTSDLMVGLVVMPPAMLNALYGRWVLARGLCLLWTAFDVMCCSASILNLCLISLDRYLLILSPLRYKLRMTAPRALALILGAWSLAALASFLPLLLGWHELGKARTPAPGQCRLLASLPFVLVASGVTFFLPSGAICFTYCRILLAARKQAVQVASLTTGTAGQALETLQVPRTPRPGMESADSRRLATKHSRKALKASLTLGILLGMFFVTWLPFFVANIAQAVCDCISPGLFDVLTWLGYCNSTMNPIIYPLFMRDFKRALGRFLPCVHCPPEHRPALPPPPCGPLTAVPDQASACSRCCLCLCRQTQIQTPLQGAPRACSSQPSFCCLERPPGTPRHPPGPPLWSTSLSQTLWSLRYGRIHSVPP
pKi: −log10 of the molar value.
If the reported pKi equals or exceeds 8, assign Condition met. If not, assign Condition not met.

CCN(CC)C(=O)C1C=C2c3cccc4[nH]cc(c34)CC2N(C)C1 (stereo not drawn) [NSC_3981]    Condition met
COc1ccc(NS(=O)(=O)c2sc3ccc(Cl)cc3c2C)cc1N1CCNCC1    Condition met
NCCc1c[nH]c2ccc(O)cc12 [[3H]-5-HT]    Condition not met

Asked: API: above_or_equal(metric=pKi, cutoff=8) for item COc1ccc2[nH]cc(CCN)c2c1 [tryptamine, 5-Methoxy]
Given back: Condition not met

Asked: API: above_or_equal(metric=pKi, cutoff=8) for item COc1ccc(NS(=O)(=O)c2sc3ccc(Cl)cc3c2C)cc1N1CCN(C)CC1 [SB-258510]
Given back: Condition met

Asked: API: above_or_equal(metric=pKi, cutoff=8) for item "CN(C)CCC=C1c2ccccc2CCc2ccccc21"
Given back: Condition not met

Asked: API: above_or_equal(metric=pKi, cutoff=8) for item CNS(=O)(=O)Cc1ccc2[nH]cc(CCN(C)C)c2c1 [Sumax]
Given back: Condition not met

Asked: API: above_or_equal(metric=pKi, cutoff=8) for item "COc1ccc(S(=O)(=O)Nc2cc(Br)cc(F)c2Br)cc1N1CCNCC1"
Given back: Condition met
